SUBJECT_OF_TEST: c-Met (baculovirus expressed human c-Met kinase domain P948-S1343) (Homo sapiens)
Construct: human c-Met kinase domain P948-S1343; host or cells: baculovirus expression
Sequence (P08581 1011-1343 limits assumed): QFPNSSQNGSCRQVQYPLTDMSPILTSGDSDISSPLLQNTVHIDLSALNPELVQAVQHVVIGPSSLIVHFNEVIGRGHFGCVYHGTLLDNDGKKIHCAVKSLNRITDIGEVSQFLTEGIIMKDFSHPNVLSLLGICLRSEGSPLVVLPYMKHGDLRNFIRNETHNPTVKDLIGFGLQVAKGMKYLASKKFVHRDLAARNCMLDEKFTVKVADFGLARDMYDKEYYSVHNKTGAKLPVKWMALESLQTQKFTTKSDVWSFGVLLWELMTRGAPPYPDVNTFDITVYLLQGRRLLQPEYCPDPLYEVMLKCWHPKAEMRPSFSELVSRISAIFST
EXPERIMENT_DESCRIPTION: c-Met Luciferase-Coupled Chemiluminescent Kinase assay (LCCA);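 also: kinase activity read as percent ATP left after reaction, by luciferase-luciferin chemiluminescence, with 1 µM ATP and 1 µM poly-EY substrate, 2 h at ambient temperature, 10-point dose-response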
Type: biochemical
Consider the following molecules and their measured IC50 readings.

{"MOLECULE": "COc1cc2c(Oc3ccc(NC(=O)C4(C(=O)Nc5ccc(F)cc5)CC4)c(C)c3)ccnc2cc1OCCCN1CCOCC1 [Example 331]", "IC50": "< 50 nM"}
{"MOLECULE": "COc1cc2c(Oc3ccc(NC(=O)C4(C(=O)Nc5ccc(F)cc5)CC4)cc3F)ccnc2cc1OCCCN1CCCCC1 [Example 313]", "IC50": "< 50 nM"}
{"MOLECULE": "COc1cc2nccc(Oc3ccc(NC(=O)C4(C(=O)NCc5ccc(F)cc5)CC4)cc3)c2cc1OC [Example 392]", "IC50": "50 to 500 nM"}
{"MOLECULE": "COc1cc2nccc(Oc3ccc(NC(=O)C4(C(=O)Nc5cccc(CN6CCCCC6)c5)CC4)cc3)c2cc1OC [Example 400]", "IC50": "50 to 500 nM"}
